Where these numbers come from: patent US10508118B2

# reported IC50; entries follow
Target: NPM-ALK-BaF3 (Homo sapiens, UniProt Q9UM73)
Construct: expressed in transfected cells; host or cells: Ba/F3 cells; the other entry of the earlier key: NPM1 (P06748, Nucleophosmin)
Sequence (Q9UM73 with tags, fused parts or gaps): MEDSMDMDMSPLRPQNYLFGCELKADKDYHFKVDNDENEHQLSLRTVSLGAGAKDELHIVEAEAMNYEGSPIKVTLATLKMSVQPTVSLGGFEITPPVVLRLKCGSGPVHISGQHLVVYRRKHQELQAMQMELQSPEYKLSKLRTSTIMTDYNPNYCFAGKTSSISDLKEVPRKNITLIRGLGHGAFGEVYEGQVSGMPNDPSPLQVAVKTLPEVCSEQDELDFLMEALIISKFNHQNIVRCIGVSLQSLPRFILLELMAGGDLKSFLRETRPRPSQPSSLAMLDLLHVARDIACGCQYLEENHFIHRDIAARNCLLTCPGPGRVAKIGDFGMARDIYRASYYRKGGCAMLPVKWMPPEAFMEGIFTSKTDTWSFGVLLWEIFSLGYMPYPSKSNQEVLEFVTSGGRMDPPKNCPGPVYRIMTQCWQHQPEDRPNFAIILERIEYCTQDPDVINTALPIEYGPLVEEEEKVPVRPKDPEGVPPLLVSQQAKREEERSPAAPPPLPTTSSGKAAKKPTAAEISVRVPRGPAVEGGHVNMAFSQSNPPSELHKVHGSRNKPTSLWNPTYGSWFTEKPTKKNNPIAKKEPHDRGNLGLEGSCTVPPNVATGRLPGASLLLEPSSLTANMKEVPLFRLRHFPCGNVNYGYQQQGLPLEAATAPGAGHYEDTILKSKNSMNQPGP
Experiment: Growth inhibition of NPM-ALK transformed BaF3 cells (MTS)
Assay type: cell-based
Details: 48 hours, Table 11

Consider the reported IC50 for these molecules:
> print(dat)
                               smiles.input      result
1  COc1cc(N2CCN(C)CC2)ccc1Nc1nc(NCc2ccccc2S(C)(=O)=O)c2[nH]ccc2n1  > 10000 nM
2  CS(=O)(=O)c1ccccc1CNc1nc(Nc2ccc(S(N)(=O)=O)cc2)nc2cc[nH]c12  > 10000 nM
3  COc1cc(N2CCN(C)CC2)ccc1Nc1nc(Nc2ccccc2S(C)(=O)=O)c2[nH]ccc2n1    ~4560 nM

// next item, IC50 requested
**Query** If you can, please state the reported IC50 value of `CNc1nc(Nc2ccc(N3CCC(N4CCN(C)CC4)CC3)cc2OC)nc2cc[nH]c12` .
**Result** > 10000 nM

====

Target: EML4-ALK-BaF3 (Homo sapiens, UniProt Q9UM73)
Construct: expressed in transfected cells; host or cells: Ba/F3 cells; the other entry of the earlier key: EML4 (Q9HC35, Echinoderm microtubule-associated protein-like 4)
Sequence (Q9UM73 1058-1620 limits assumed): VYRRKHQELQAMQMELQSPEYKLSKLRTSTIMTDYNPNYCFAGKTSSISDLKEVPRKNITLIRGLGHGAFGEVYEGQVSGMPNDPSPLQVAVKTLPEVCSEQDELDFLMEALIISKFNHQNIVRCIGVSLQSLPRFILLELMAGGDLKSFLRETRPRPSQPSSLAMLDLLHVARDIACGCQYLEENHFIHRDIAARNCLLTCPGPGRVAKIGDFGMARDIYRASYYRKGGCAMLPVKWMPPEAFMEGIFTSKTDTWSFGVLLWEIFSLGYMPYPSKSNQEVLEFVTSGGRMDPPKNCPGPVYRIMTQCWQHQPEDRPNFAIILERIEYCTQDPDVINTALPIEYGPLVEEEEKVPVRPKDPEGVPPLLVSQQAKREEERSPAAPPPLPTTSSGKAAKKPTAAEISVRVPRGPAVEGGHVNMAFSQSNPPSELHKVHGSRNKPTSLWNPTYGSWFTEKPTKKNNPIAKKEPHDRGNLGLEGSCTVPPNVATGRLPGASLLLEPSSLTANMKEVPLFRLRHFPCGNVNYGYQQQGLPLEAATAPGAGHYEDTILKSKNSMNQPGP
Assay: Growth inhibition of EML4-ALK transformed BaF3 cells (MTS)
Assay type: cell-based
Settings: EML4-ALK-BaF3 cells, 48 hours, MTS; Table 11
# reported IC50; entries follow

Consider the reported IC50 for these compounds:
> print(dat)
                                   compound  readout.label      result
1  COC(=O)c1ccccc1Oc1nc(Nc2ccc(S(N)(=O)=O)cc2)nc2cc[nH]c12 [IV-4]           IC50  > 10000 nM
2  COc1cc(N2CCN(C)CC2)ccc1Nc1nc(Nc2ccccc2SC(C)C)c2[nH]ccc2n1 [IB-1]           IC50     ~895 nM
3  CCNc1nc(Nc2ccc(N3CCC(N4CCN(C)CC4)CC3)cc2OC)nc2cc[nH]c12 [IR-2]           IC50  > 10000 nM

**Query** If you can, please state the reported IC50 value of COc1cc(N2CCN(C)CC2)ccc1Nc1nc(NCc2ccccc2S(C)(=O)=O)c2[nH]ccc2n1 [IN-1] .
**Result** > 10000 nM

**Query** If you can, please state the reported IC50 value of CS(=O)(=O)c1ccccc1Nc1nc(Nc2ccc(S(N)(=O)=O)cc2)nc2cc[nH]c12 [IC-4] .
**Result** > 10000 nM

**Query** If you can, please state the reported IC50 value of CC(C)S(=O)(=O)c1ccccc1CNc1nc(Nc2ccc(S(N)(=O)=O)cc2)nc2cc[nH]c12 [IO-4] .
**Result** > 10000 nM

**Query** If you can, please state the reported IC50 value of CC(C)S(=O)(=O)c1ccccc1CNc1nc(Nc2ccc(N3CCC(O)CC3)cc2)nc2cc[nH]c12 [IO-3] .
**Result** > 10000 nM

**Query** If you can, please state the reported IC50 value of CS(=O)(=O)c1ccccc1CNc1nc(Nc2ccc(N3CCC(O)CC3)cc2)nc2cc[nH]c12 [IN-3] .
**Result** > 10000 nM

**Query** If you can, please state the reported IC50 value of CC(C)S(=O)(=O)c1ccccc1Nc1nc(Nc2ccc(S(N)(=O)=O)cc2)nc2cc[nH]c12 [ID-5] .
**Result** > 10000 nM

**Query** If you can, please state the reported IC50 value of COC(=O)c1ccccc1Oc1nc(Nc2ccc(N3CCN(C)CC3)cc2OC)nc2cc[nH]c12 [IV-1] .
**Result** 6900 nM

**Query** If you can, please state the reported IC50 value of NS(=O)(=O)c1ccc(Nc2nc(NC3CC3)c3[nH]ccc3n2)cc1 [IS-4] .
**Result** > 10000 nM

**Query** If you can, please state the reported IC50 value of COc1cc(N2CCN(C)CC2)ccc1Nc1nc(Nc2ccccc2SC)c2[nH]ccc2n1 [IA-1] .
**Result** 1370 nM
